Below, each entry is listed with its recorded RP-LC retention time.
# method: gradient 5% acetonitrile 3 min, to 50% in 2 min, to 85% in 15 min, held 3 min, 100 µL/min
# condition info: column: Zorbax Extend-C18 2.1 x 50 mm; eluents: water / acetonitrile, 0.1% formic acid
Only the number, expressed in s, is required.

CC(C)CC(=O)N(CC(=O)N(Cc1ccc2c(c1)OCO2)Cc1ccco1)CC1CCCO1 (stereo not drawn) : 866
COc1ccc(-n2ccc(=O)c(-c3nc(-c4ccccc4Cl)no3)n2)cc1 : 877
O=C(Nc1cccc(Cl)c1F)c1cnc(-c2ccccc2)nc1-c1ccncc1 : 964
O=C(CCCn1c(=O)c2cccn2c2ccc(F)cc21)Nc1ccc2c(c1)OCCO2 : 642
COc1ccc(N(C)C(=O)c2nc(C)n(C3CCN(S(C)(=O)=O)CC3)c2C)cc1 : 600
O=C(CN1CC=C(c2cnn(-c3ccccc3)c2)CC1)Nc1ccccc1Cl : 690

Kindly consider the entry below.
[Q] Identify the reported RP-LC retention time for the following entry. O=C(Cn1nc(S(=O)(=O)c2cccc(F)c2)ccc1=O)N1CCN(c2ccccc2)CC1
[A] 802

----------
# method: gradient 5% acetonitrile 3 min, to 50% in 2 min, to 85% in 15 min, held 3 min, 100 µL/min
# condition info: column: Zorbax Extend-C18 2.1 x 50 mm; eluents: water / acetonitrile, 0.1% formic acid
property name: RP-LC retention time (s)
Just the number in s, nothing appended.

[Q] Identify RP-LC retention time associated with the compound COCCNC(=O)c1nnc(-c2ccc(S(=O)(=O)N3CCC(C)CC3)cc2)o1
[A] 838

[Q] Kindly indicate its recorded RP-LC retention time. Item: CCC(CC)NC(=O)c1c(OCC2CC2)cc(=O)n2c1CCCCC2
[A] 754

[Q] Could you please provide reported RP-LC retention time for Cn1c(=O)c2c(-c3ccc(F)cc3)c(C#N)c(N)nc2n(C)c1=O ? Thanks!
[A] 757

[Q] Using known records, supply RP-LC retention time for COc1cccc(-c2noc(Cc3nnc(-c4ccc(C)c(F)c4)o3)n2)c1OC
[A] 1010

[Q] Give RP-LC retention time for Cc1ccc(NC(=O)Cn2nc(N3CCCC(C)C3)c3ccccc3c2=O)c(F)c1 (centres undefined)
[A] 1110

[Q] Answer with reported RP-LC retention time of CN1C(=O)CSc2cnn(CC(=O)N3CCCc4ccccc43)c(=O)c21
[A] 726

----------
# method: gradient 5% acetonitrile 3 min, to 50% in 2 min, to 85% in 15 min, held 3 min, 100 µL/min
# condition info: column: Zorbax Extend-C18 2.1 x 50 mm; eluents: water / acetonitrile, 0.1% formic acid
property name: RP-LC retention time (s)
Provide only the numeric value, understood in s.

Cc1ccccc1-n1c(=O)c2sccc2n(Cc2nc(-c3ccc(C(F)(F)F)cc3)no2)c1=O : 1120
CCCCOc1ccc(NC(=O)c2cc(=O)c3cc(Cl)c(C)cc3o2)c2cccnc12 : 824
Cc1ccc(F)cc1NS(=O)(=O)c1ccc2c(c1)C(=O)N(C)c1ncccc1O2 : 924
O=C(C1CCN(c2ccc3nncn3n2)CC1)N1CCN(c2ccccn2)CC1 : 560
CC(C)n1cnc2ccc(-c3noc(-c4cccs4)n3)cc21 : 746

[Q] Output RP-LC retention time of CCNS(=O)(=O)c1ccc(NC(=O)C2CCN(C(=O)C(C)(C)C)CC2)cc1
[A] 722

[Q] Let me know recorded RP-LC retention time for CCC(=O)N1CCc2c(C(=O)NCCN3CCc4ccccc4C3)cccc21 , thanks.
[A] 614

[Q] Return RP-LC retention time (reported value) for this molecule: Cc1c(C(=O)c2ccccc2)c2ccccc2n1C
[A] 1030

[Q] Assign RP-LC retention time to the following record: CCOC(=O)C1=C(CN2CCCC(c3ccccc3)C2)NC(=O)NC1c1cccc(OC)c1OC (stereo not drawn)
[A] 695

[Q] Using known records, supply RP-LC retention time for CCn1cc(C)c(C(=O)O)c1CC(=O)N(C)c1ccccc1F
[A] 770
